meta.source: paper PMC9482650

Molecular target: T1, NHERF3_3, Q5T2W1
T1 sequence (Q5T2W1 238-333, limits assumed, looked up): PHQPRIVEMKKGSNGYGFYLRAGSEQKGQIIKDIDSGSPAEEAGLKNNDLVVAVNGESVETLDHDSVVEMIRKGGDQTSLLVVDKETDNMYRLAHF
Test: holdup assay
Set-up: key: below the threshold = too weak to quantify, mostly under pKd 3.1 to 4
Settings: plain residues with an end cap or a label only (N-terminal biotin on a linker: ahx)
Experimental Endpoint: pKd

HNAFLSVTTV [PDZRN4, Q6ZMN7]	below the threshold
PSASCAVTAA [PDLIM4, P50479;P50479-2]	below the threshold
RRRKRKRTYL [HPV49-L2, P36762]	4.18
NRKREIFSNF [NHERF2, Q15599]	below the threshold
TVICWPGSLV [LNX2, Q8N448]	below the threshold

Moving on to the next binder.
# input binder: LSDPSVSTVV [GRIN1, Q05586;Q05586-2] ; wanted: its pKd
below the threshold
